Provenance of the data: ChEMBL document CHEMBL3593172

Collected IC50 values appear next to each entry.
# assayNotes: cells
# condition: Homo sapiens, MIA PaCa-2, 48 h
# Description: Cytotoxicity against human MIAPaCa2 cells assessed as inhibition of cell proliferation after 48 hrs by MTT assay
Answer in µM, number only, no unit symbol.

Past entries and their recorded results:
- lineNotation: "O=S(=O)(c1ccc(F)cc1)N(c1ccccc1)c1ccnc2ccc(-c3ccc(O)cc3)cc12"
  IC50 / µM: 65
- lineNotation: "COc1ccc(-c2ccc3nccc(Nc4ccccc4)c3c2)cc1"
  IC50 / µM: 26
- lineNotation: "Oc1ccc(-c2ccc3nccc(Nc4ccccc4)c3c2)cc1"
  IC50 / µM: 18
- lineNotation: "O=S(=O)(c1ccc(Br)cc1)N(c1ccccc1)c1ccnc2ccc(-c3ccc(O)cc3)cc12"
  IC50 / µM: 20
- lineNotation: "Nc1ccc(S(=O)(=O)N(c2ccccc2)c2ccnc3ccc(-c4ccc(O)cc4)cc23)cc1"
  IC50 / µM: 8

Prompt line: Please report the measured IC50 for `O=[N+]([O-])c1cc(S(=O)(=O)N(c2ccccc2)c2ccnc3ccc(-c4ccc(O)cc4)cc23)ccc1C(F)(F)F`
Response line: 16

Prompt line: Input `O=C(c1ccccc1F)N(c1ccccc1)c1ccnc2ccc(-c3ccc(O)cc3)cc12` , output reported IC50.
Response line: 15
